Experiment summary: qHTS assay to identify small molecule agonists of the NFkB signaling pathway - cell viability counter screen (AID 1159515); further: nearly all actives have a fitted effect of over 55% in size
Condition description: NFkB-bla ME-180 viability, CellTiter-Glo luminescence, 5 h; series mostly up to 61 µM
Inconclusive results are not listed. Activity calls are given as the source filed them. The call rests on the fitted dose curve.
Outcome codes: label 1 = active, label 0 = inactive

Compound	Assigned category
CC(C)(C)CC(C)(C)c1ccc(OCCOCC[N+](C)(C)Cc2ccccc2)cc1	label 1
CC[C@@]1(O)C(=O)OCc2c1cc1n(c2=O)Cc2c-1nc1ccccc1c2/C=N/OC(C)(C)C	label 0
CC(C)(C)CC(C)(C)c1ccc(O)c(Cc2ccc(Cl)cc2Cl)c1	label 1
[O-][n+]1ccccc1SSc1cccc[n+]1[O-]	label 1
Cc1c(C)c2c(c(C)c1O)CCC(C)(COc1ccc(CC3SC(=O)NC3=O)cc1)O2 (stereo not given)	label 0

This collection of values is drawn from PubChem BioAssay (Tox21).
